Taken from patent US20230286973A1.

Could you please report measured EC50 for the items listed next?
test system: multiple myeloma cell line NCI-H929; test: H929 Cell Viability Assay; type: cell-based, human; conditions: Homo sapiens, NCI-H929, 48 h, NCI-H929 cells, Celltiter-Glo
All answers are understood in µM, so give the number only.

INPUT: Fill in the blank: the reported EC50 of O=C(Nc1nc([C@H]2CCCN2c2ccc(O[C@H]3CCCNC3)cc2)cs1)c1cccn1Cc1ccnc(F)c1 [Compound A88] is ____.
OUTPUT: 7.33

INPUT: Fill in the blank: the reported EC50 of O=C(CO)Nc1ccc(N2CCC[C@@H]2c2csc(NC(=O)c3cccn3Cc3ccnc(F)c3)n2)cc1 [Compound A141] is ____.
OUTPUT: 0.921

INPUT: Fill in the blank: the reported EC50 of O=C(Nc1nc([C@H]2CCCN2c2ccc(O[C@H]3CCOC3)cc2)cs1)c1cccn1Cc1ccncc1 [Compound A4] is ____.
OUTPUT: 0.43

INPUT: Fill in the blank: the reported EC50 of O=C(Nc1nc([C@H]2CCCN2c2ccc(C3CCCNC3)cc2)cs1)c1cccn1Cc1ccncc1 (stereo partly shown) [Compound A61] is ____.
OUTPUT: 6.29

INPUT: Fill in the blank: the reported EC50 of CN(C)C(=O)N1CCC(Oc2ccc(N3CCC[C@@H]3c3csc(NC(=O)c4cccn4Cc4ccnc(F)c4)n3)cc2)CC1 [Compound A137] is ____.
OUTPUT: 0.948

INPUT: Fill in the blank: the reported EC50 of CC(C)c1nc(/C=C/c2csc(NC(=O)c3cccn3Cc3ccnc(F)c3)n2)cn1C [Compound B67] is ____.
OUTPUT: 21

INPUT: Fill in the blank: the reported EC50 of O=C(Nc1nc([C@H]2CCCN2c2ccc(OC3CN(C(=O)CO)C3)cc2)cs1)c1cccn1Cc1ccnc(F)c1 [Compound A110] is ____.
OUTPUT: 0.884

INPUT: Fill in the blank: the reported EC50 of O=C(Nc1nc([C@H]2CCCN2c2ccccc2)cs1)c1cccn1Cc1ccnc(Br)c1 [Compound E23] is ____.
OUTPUT: 18

INPUT: Fill in the blank: the reported EC50 of NC(=O)N1CCC(Oc2ccc(N3CCC[C@@H]3c3csc(NC(=O)c4cccn4Cc4ccnc(F)c4)n3)nc2)CC1 [Compound A156] is ____.
OUTPUT: 2.96

INPUT: Fill in the blank: the reported EC50 of Cc1cc(Cn2cccc2C(=O)Nc2nc([C@H]3CCCN3c3ccccc3)cs2)ccn1 [Compound A52] is ____.
OUTPUT: 20.6

INPUT: Fill in the blank: the reported EC50 of O=C(Nc1nc(CCC2CCCCO2)cs1)c1cccn1Cc1ccncc1 (stereo not shown) [Compound E6] is ____.
OUTPUT: 24.2

INPUT: Fill in the blank: the reported EC50 of CC(=O)N1CCCC(c2ccc(N3CCC[C@@H]3c3csc(NC(=O)c4cccn4Cc4ccncc4)n3)cc2)C1 (stereo partly shown) [Compound A63] is ____.
OUTPUT: 1.78

INPUT: Fill in the blank: the reported EC50 of Cc1cc(C(=O)Nc2nc([C@H]3CCCN3c3ccccc3)cs2)n(Cc2ccncc2)c1 [Compound A115] is ____.
OUTPUT: 2

====

Could you please report measured Liver Microsome Stability (Multiple Species): Mouse - % Remaining after 30 min w/NADPH for the items listed next?
assay: Liver Microsome Stability Assay (mouse); details: mouse liver microsomes, with NADPH, 1.0 uM compound
All answers are understood in %, so give the number only.

INPUT: Fill in the blank: the reported Liver Microsome Stability (Multiple Species): Mouse - % Remaining after 30 min w/NADPH of N#CCC1(Cn2cccc2C(=O)Nc2nc([C@H]3CCCN3c3ccccc3)cs2)CC1 is ____.
OUTPUT: 1.66

INPUT: Fill in the blank: the reported Liver Microsome Stability (Multiple Species): Mouse - % Remaining after 30 min w/NADPH of CN(C)c1cccc(-c2csc(NC(=O)c3cccn3Cc3ccncc3)n2)c1 is ____.
OUTPUT: 11

INPUT: Fill in the blank: the reported Liver Microsome Stability (Multiple Species): Mouse - % Remaining after 30 min w/NADPH of O=C(Nc1nc(/C=C/c2coc(C3CCCCC3)n2)cs1)c1cccn1Cc1ccncc1 is ____.
OUTPUT: 16.5

INPUT: Fill in the blank: the reported Liver Microsome Stability (Multiple Species): Mouse - % Remaining after 30 min w/NADPH of O=C(Nc1nc([C@H]2CCCN2c2ccccc2)cs1)c1cccn1CCC1COC1 is ____.
OUTPUT: 19.1

====

assay: Liver Microsome Stability Assay (human); conditions: human liver microsomes, with NADPH, 1.0 uM compound
Lab note: anything with Liver Microsome Stability (Multiple Species): Human - % Remaining after 30 min w/NADPH below 0.9% is marked Fulfilled; values at 0.9% or higher are marked Not fulfilled.

INPUT: Strictly below 0.9% in Liver Microsome Stability (Multiple Species): Human - % Remaining after 30 min w/NADPH? Cc1ccc(/C=C/c2csc(NC(=O)c3cccn3Cc3ccnc(F)c3)n2)nc1F
OUTPUT: Not fulfilled

INPUT: Strictly below 0.9% in Liver Microsome Stability (Multiple Species): Human - % Remaining after 30 min w/NADPH? Cc1ocnc1/C=C/c1csc(NC(=O)c2cccn2Cc2ccnc(F)c2)n1
OUTPUT: Not fulfilled

INPUT: Strictly below 0.9% in Liver Microsome Stability (Multiple Species): Human - % Remaining after 30 min w/NADPH? Cc1coc(/C=C/c2csc(NC(=O)c3cccn3Cc3ccncc3)n2)n1
OUTPUT: Fulfilled

INPUT: Strictly below 0.9% in Liver Microsome Stability (Multiple Species): Human - % Remaining after 30 min w/NADPH? CC(C)n1cnc(/C=C/c2csc(NC(=O)c3cccn3Cc3cc(F)nc(F)c3)n2)c1
OUTPUT: Fulfilled

INPUT: Strictly below 0.9% in Liver Microsome Stability (Multiple Species): Human - % Remaining after 30 min w/NADPH? CNCc1ccc(N2CCC[C@@H]2c2csc(NC(=O)c3cccn3Cc3ccncc3)n2)cc1
OUTPUT: Not fulfilled

INPUT: Strictly below 0.9% in Liver Microsome Stability (Multiple Species): Human - % Remaining after 30 min w/NADPH? Cc1cc(C(=O)Nc2nc([C@H]3CCCN3c3ccccc3)cs2)n(Cc2ccncc2)c1
OUTPUT: Not fulfilled

INPUT: Strictly below 0.9% in Liver Microsome Stability (Multiple Species): Human - % Remaining after 30 min w/NADPH? O=C(O)CCn1cccc1C(=O)Nc1nc([C@H]2CCCN2c2ccccc2)cs1
OUTPUT: Not fulfilled

====

tested on: multiple myeloma cell line NCI-H929; assay: H929 Cell Viability Assay; format: cell-based, human; settings: Homo sapiens, NCI-H929, 48 h, NCI-H929 cells, Celltiter-Glo
Could you please report measured log10(EC50) for the items listed next?
The common logarithm of EC50 in µM is what is listed.

INPUT: Fill in the blank: the reported log10(EC50) of O=C(Nc1nc([C@H]2CCCN2c2ccc(OC3CCN(C(=O)C(F)F)CC3)cc2)cs1)c1cccn1Cc1ccnc(F)c1 is ____.
OUTPUT: -0.46

INPUT: Fill in the blank: the reported log10(EC50) of CC(C)c1ccc(/C=C/c2csc(NC(=O)c3cccn3Cc3ccncc3)n2)nc1 is ____.
OUTPUT: 0.84

INPUT: Fill in the blank: the reported log10(EC50) of CC(=O)N1CCC(Oc2ccc(N3CCC[C@@H]3c3csc(NC(=O)c4cccn4Cc4ccnc(F)c4)n3)c(F)c2)CC1 is ____.
OUTPUT: -0.35

INPUT: Fill in the blank: the reported log10(EC50) of CCc1ccc(N2CCC[C@@H]2c2csc(NC(=O)c3cccn3CC3CCOCC3)n2)nc1 is ____.
OUTPUT: 0.79

INPUT: Fill in the blank: the reported log10(EC50) of NC(=O)c1ccc(N2CCC[C@@H]2c2csc(NC(=O)c3cccn3Cc3ccnc(F)c3)n2)cc1 is ____.
OUTPUT: -1.09

INPUT: Fill in the blank: the reported log10(EC50) of O=C(Nc1nc(/C=C/c2ncn3c2CCCC3)cs1)c1cccn1Cc1ccnc(F)c1 is ____.
OUTPUT: 1.22

INPUT: Fill in the blank: the reported log10(EC50) of O=C(Nc1nc([C@H]2CCCN2c2ccc(Br)cc2)cs1)c1cccn1Cc1ccnc(F)c1 is ____.
OUTPUT: -0.80

INPUT: Fill in the blank: the reported log10(EC50) of CC(=O)N[C@H](C)c1ccc(N2CCC[C@@H]2c2csc(NC(=O)c3cccn3Cc3ccncc3)n2)cc1 is ____.
OUTPUT: -0.38

INPUT: Fill in the blank: the reported log10(EC50) of CC(=O)Nc1ccc(N2CCC[C@@H]2c2csc(NC(=O)c3cccn3CC3CCOCC3)n2)cc1 is ____.
OUTPUT: 0.33

INPUT: Fill in the blank: the reported log10(EC50) of CC(=O)N1CCC(Oc2ccc(N3CCC[C@@H]3c3csc(NC(=O)c4cccn4Cc4ccnc(F)c4)n3)c(Cl)c2)CC1 is ____.
OUTPUT: 0.00

INPUT: Fill in the blank: the reported log10(EC50) of CC(C)c1ccc(/C=C/c2csc(NC(=O)c3cccn3Cc3ccnc(F)c3)n2)nc1 is ____.
OUTPUT: 1.20

INPUT: Fill in the blank: the reported log10(EC50) of O=C(Nc1nc([C@H]2CCCN2c2ccc(OC3CCSCC3)cc2)cs1)c1cccn1Cc1ccnc(F)c1 is ____.
OUTPUT: 0.76

INPUT: Fill in the blank: the reported log10(EC50) of O=C(Nc1nc(-c2ccccc2-c2ccccn2)cs1)c1cccn1Cc1ccnc(F)c1 is ____.
OUTPUT: 0.43

INPUT: Fill in the blank: the reported log10(EC50) of O=C(Nc1nc(/C=C/c2cn(C3CCOCC3)cn2)cs1)c1cccn1Cc1ccnc(F)c1 is ____.
OUTPUT: 1.36

INPUT: Fill in the blank: the reported log10(EC50) of O=C(Nc1nc([C@H]2CCCN2c2ccccc2)cs1)c1cccn1Cc1ccncc1Br is ____.
OUTPUT: 1.08

INPUT: Fill in the blank: the reported log10(EC50) of COc1cc(N2CCC[C@@H]2c2csc(NC(=O)c3cccn3Cc3ccnc(F)c3)n2)ccc1OC1CCN(C(C)=O)CC1 is ____.
OUTPUT: -0.40

INPUT: Fill in the blank: the reported log10(EC50) of O=C(Nc1nc([C@@H]2CCCN2c2ccc(C(F)(F)F)cc2)cs1)c1cccn1Cc1ccnc(F)c1 is ____.
OUTPUT: 1.21

INPUT: Fill in the blank: the reported log10(EC50) of CC(C)c1nc(/C=C/c2csc(NC(=O)c3cccn3Cc3ccncc3)n2)co1 is ____.
OUTPUT: 0.88

INPUT: Fill in the blank: the reported log10(EC50) of COCCOc1ccc(N2CCC[C@@H]2c2csc(NC(=O)c3cccn3Cc3ccnc(F)c3)n2)cc1 is ____.
OUTPUT: -0.56

INPUT: Fill in the blank: the reported log10(EC50) of O=C(Nc1nc([C@H]2CCCN2c2ccc(C3CCCCN3)cc2)cs1)c1cccn1Cc1ccncc1 (stereo partly shown) is ____.
OUTPUT: 1.20

INPUT: Fill in the blank: the reported log10(EC50) of Cc1ccnc(N2CCC[C@@H]2c2csc(NC(=O)c3cccn3Cc3ccncc3)n2)c1 is ____.
OUTPUT: 0.47

INPUT: Fill in the blank: the reported log10(EC50) of CC(C)n1cnc(-c2ccccc2-c2csc(NC(=O)c3cccn3Cc3ccnc(F)c3)n2)c1 is ____.
OUTPUT: 0.89

INPUT: Fill in the blank: the reported log10(EC50) of CC(=O)N1CCC(Oc2ccc(N3CCC[C@@H]3c3csc(NC(=O)c4cccn4Cc4ccnc(F)c4)n3)cc2)C(F)C1 (stereo partly shown) is ____.
OUTPUT: 0.11

INPUT: Fill in the blank: the reported log10(EC50) of CNCCOc1ccc(N2CCC[C@@H]2c2csc(NC(=O)c3cccn3Cc3ccnc(F)c3)n2)cc1 is ____.
OUTPUT: 0.61
